The origin of these recorded values is ChEMBL document CHEMBL3351906.

- Tested on: C6
- assay text: Inhibition of cell proliferation of rat C6 cells assessed as cell viability at 100 uM after 72 hrs by sulforhodamine B assay
- Format: functional
- measurement setup: C6, 72 h, read-out: Activity
metric: viability at 100 µM (%)
Express the result in % but write the number alone.

# compound, unit string, numeric readout
data = [
    ("CC(C)=CCC[C@](C)(O[C@@H]1O[C@H](CO[C@@H]2O[C@@H](CO)[C@H](O)[C@H]2O)[C@@H](O)[C@H](O)[C@H]1O)[C@H]1CC[C@]2(C)[C@@H]1[C@H](O)C[C@@H]1[C@@]3(C)CC[C@H](O[C@@H]4O[C@H](CO)[C@@H](O)[C@H](O)[C@H]4O[C@@H]4O[C@H](CO)[C@@H](O)[C@H](O)[C@H]4O)C(C)(C)[C@@H]3CC[C@]12C [GINSENOSIDE RC]", "%", 79),
]

Please find the next compound below.
For C6, give viability at 100 µM of the listed compound: CC(C)=CCC[C@](C)(O[C@@H]1O[C@H](CO)[C@@H](O)[C@H](O)[C@H]1O)[C@H]1CC[C@]2(C)[C@@H]1[C@H](O)C[C@@H]1[C@@]3(C)CC[C@H](O[C@@H]4O[C@H](CO)[C@@H](O)[C@H](O)[C@H]4O)C(C)(C)[C@@H]3CC[C@]12C [GINSENOSIDE F2]
117
